Hey, just so you know, these numbers are from patent US20220112295A1.

Reported % inhibition values are given for each entry in this list.
target.system: T1, native cynomolgus monkey CD30L on activated T cells (cynomolgus monkey, UniProt A0A7N9CVX7 1-234)
T1 construct: whole, on cells; also called cynomologous CD30L
T1 sequence: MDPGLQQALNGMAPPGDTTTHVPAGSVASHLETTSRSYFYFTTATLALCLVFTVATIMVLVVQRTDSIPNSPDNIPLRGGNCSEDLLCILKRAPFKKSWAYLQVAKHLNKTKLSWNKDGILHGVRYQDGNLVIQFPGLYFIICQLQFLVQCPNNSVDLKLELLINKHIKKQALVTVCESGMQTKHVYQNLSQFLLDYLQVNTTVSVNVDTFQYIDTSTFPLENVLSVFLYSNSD
assay.remarks: FACS, antibody at 50 ug/mL, inhibition of huCD30.Fc-His binding to activated cynomolgus T cells
Report only the number, with the unit % understood.

binder="Antibody D (antibody, V domains shown, also called mAb D) VH: QVQLQESGPGLVKPSETLSLTCTVSGGSISSYSWSWIRQPAGKGLEWIGRTSTSGRNNYNPSLKSRVTMSVDTSKNQFSLKLNSVTAADTAVYYCARDFTIAARRYYYYGMDVWGQGTTVTVSS VL: QSALTQPASVSGSPGQSITISCTGTSSDIGLYNYVSWYQQHPGKAPKLIIYEVINRPSGVSNRFSGSESGNTASLTISGLQAEDEANYYCSSYTSSSTWVFGGGTKLTVL" reported=84

Tell me % inhibition reported for Antibody E (antibody, V domains shown, also called mAb E) VH: QVQLQESGPRLVKPSETLSLTCTVSGGSITNNYWSWIRQPAGKGLEWIGRVYSSGLTNYKPSLKSRVTMSVDTSKNQFSLRLNSVTAADTAVYYCARERATVTTRYHYDGMDVWGQGTSVTVSS VL: QSALTQPASVSGSPGQSITISCTGSSSDIGTYNYVSWYQQYPGKAPELMIYEVNNRPSGVSDRFSGSTSGNTASLTISGLQANDEADYYCSSYSSSSTWVFGGGTKLTVL
87
